# Protocol summary: Cytotoxicity against Homo sapiens (human) HEL cells assessed as alteration in cell morphology by microscopy
# Format: cell-based
Parameter: MCC

Entry smiles	Obs value
O=C(N/N=C/c1ccc(Br)cc1)c1cccnc1	> 100 µg/mL
O=C(N/N=C/c1cccc(Cl)c1)c1cccnc1	> 100 µg/mL
COc1ccc(OC)c(/C=N/NC(=O)c2cccnc2)c1	100 µg/mL
O=C(N/N=C/c1ccccc1[N+](=O)[O-])c1cccnc1	> 100 µg/mL
O=C(N/N=C/c1ccc([N+](=O)[O-])cc1)c1cccnc1	≥ 0.8 µg/mL
O=C(N/N=C/c1cccc(Br)c1)c1cccnc1	> 100 µg/mL

---

# Protocol summary: Cytotoxicity against Homo sapiens (human) HEL cells assessed as alteration in cell morphology by microscopy
# Format: cell-based

Compound	MCC
O=C(N/N=C/c1ccc(F)cc1)c1cccnc1	> 100 µg/mL
O=C(N/N=C/c1ccccc1)c1cccnc1 [NICOTINIC ACID BENZYLIDENE-HYDRAZIDE]	> 100 µg/mL
O=C(N/N=C/c1cccc(O)c1)c1cccnc1	> 100 µg/mL
O=C(N/N=C/c1ccc(O)cc1)c1cccnc1	> 100 µg/mL
O=C(N/N=C/c1ccccc1O)c1cccnc1	≥ 4 µg/mL
COc1ccc(/C=N/NC(=O)c2cccnc2)cc1	> 100 µg/mL
O=C(N/N=C/c1ccccc1Cl)c1cccnc1	> 100 µg/mL
CCOc1cc(/C=N/NC(=O)c2cccnc2)ccc1O	100 µg/mL
O=C(N/N=C/c1ccc(Cl)cc1)c1cccnc1	> 100 µg/mL
O=C(N/N=C/c1ccccc1Br)c1cccnc1	100 µg/mL
COc1cc(/C=N/NC(=O)c2cccnc2)ccc1O	100 µg/mL
O=C(N/N=C/c1cccc([N+](=O)[O-])c1)c1cccnc1	> 100 µg/mL

---

# System: Human immunodeficiency virus 2
# Protocol summary: Antiviral activity against Human immunodeficiency virus type 2 (ISOLATE ROD) infected MT4 cells assessed as inhibition of virus-induced cytopathic effect after 4 days by MTT assay
# Type: functional, organism-based
# Condition parameters: Human immunodeficiency virus 2, ISOLATE ROD, MT4, 96 h
# key: entry, value: EC50

Molecule	EC50
O=C(N/N=C/c1ccccc1)c1cccnc1 [NICOTINIC ACID BENZYLIDENE-HYDRAZIDE]	> 125 µg/mL
O=C(N/N=C/c1ccccc1[N+](=O)[O-])c1cccnc1	> 68 µg/mL
Cc1ccnc2c1NC(=O)c1cccnc1N2C1CC1	4 µg/mL
CCOc1cc(/C=N/NC(=O)c2cccnc2)ccc1O	> 117 µg/mL
O=C(N/N=C/c1ccccc1Br)c1cccnc1	> 0.22 µg/mL
O=C(N/N=C/c1cccc(O)c1)c1cccnc1	> 98 µg/mL
O=C(N/N=C/c1cccc(Cl)c1)c1cccnc1	> 62 µg/mL
O=C(N/N=C/c1ccc(O)cc1)c1cccnc1	> 104 µg/mL
O=C(N/N=C/c1ccc([N+](=O)[O-])cc1)c1cccnc1	> 0.1 µg/mL
O=C(N/N=C/c1ccc(Br)cc1)c1cccnc1	> 61 µg/mL
O=C(N/N=C/c1ccccc1Cl)c1cccnc1	> 0.57 µg/mL
Cc1cn([C@H]2C[C@H](N=[N+]=[N-])[C@@H](CO)O2)c(=O)[nH]c1=O	0.0009 µg/mL
O=C(N/N=C/c1ccccc1O)c1cccnc1	> 0.61 µg/mL
O=C(N/N=C/c1cccc(Br)c1)c1cccnc1	> 66 µg/mL
O=C(N/N=C/c1ccc(Cl)cc1)c1cccnc1	> 76 µg/mL
COc1cc(/C=N/NC(=O)c2cccnc2)ccc1O	> 93 µg/mL
COc1ccc(OC)c(/C=N/NC(=O)c2cccnc2)c1	> 13 µg/mL
COc1ccc(/C=N/NC(=O)c2cccnc2)cc1	> 99 µg/mL
O=C(N/N=C/c1ccc(F)cc1)c1cccnc1	> 125 µg/mL
O=C(N/N=C/c1cccc([N+](=O)[O-])c1)c1cccnc1	> 54 µg/mL

Origin of values: ChEMBL document CHEMBL3044730
